# system tested: T1, human Claudin18.1 (CLDN18.1) (human, UniProt P56856 1-261)
# T1 construct: whole, on cells; also called human Claudine18.1
# T1 sequence (P56856 whole entry): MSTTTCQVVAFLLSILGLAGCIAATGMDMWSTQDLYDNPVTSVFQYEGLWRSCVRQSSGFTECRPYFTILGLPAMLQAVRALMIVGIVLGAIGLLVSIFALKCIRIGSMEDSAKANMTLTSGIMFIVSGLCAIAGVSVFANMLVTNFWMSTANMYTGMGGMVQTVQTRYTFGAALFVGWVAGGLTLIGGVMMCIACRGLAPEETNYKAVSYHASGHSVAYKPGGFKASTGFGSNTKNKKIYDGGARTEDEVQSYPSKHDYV
# protocol description: FACS on CHOK1-18.1 cells;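 note: antibody binding to cells detected with a fluorescently labelled secondary antibody, read out as median fluorescence intensity (MFI) by flow cytometry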
readout type: binding result

1) Ab29 (antibody, V domains shown, mouse monoclonal (hybridoma)) VH: EVLLQQSGPELVKPGASVKIPCKASGYTLTDHSMDWVKQSHGKSLEWIGNILPNNGGNIYNQKFRGKATLTVDKSSSTAYMELRSLTSEDTAVYNCARGHYGNSFAYWGQGTLVIVS VL: DIVMTQSPSSLTVRAGEKVTIYCKSSQSLFNSGNQKNYLTWYQQKPGQPPKLLIYWASTRESGVPHRFTGSGSGTDFTLTISSMQADDLATYYCQNGYFFPYTFGGGTKLEIK; no binding
2) Ab33 (antibody, V domains shown, mouse monoclonal (hybridoma)) VH: DVNLVESGGGLVKPGGSLKLSCAASGFTFSSYTMSWVRQTPEKRLEWVATITYGRIYTYYLDSVKGRFTISRDNAKNTLYLQMSSLRSEDTAMYYCTRMITGNAMDSWGLGTSVTVSS VL: DIVMTQSPSSLTVTAGEKVTMSCKSSQSLLNSGNQKNYLTWYQQKPGQPPKLLIYWASTRESGVPDRFTGSGSGTDFTLTISGVQGEDLAVYYCQNDYSYPLTFGGGTKLELK; no binding

These entries and their values trace back to patent US20230095569A1.
